assay: Components of the Cytosolic LPS Sensing Pathway: Gene Identification via Genome-wide siRNA Screen; details: RAW264.7 macrophages, IL-1a HTRF, actives lie on both sides, screened at 100 nM (by protocol), cells primed 5 h with Pam3CSK4 first
About 3,700 (7%) of roughly 53,000 sequences were called active. The full list was thinned out, with actives kept by preference.
Entry class follows z-score: one: < -0.2; two: ≥ -0.2 and < 0.9; three: ≥ 0.9

GCCAAAUUAGCAGCUUGUGTT against Rln3 ... two
CCAAUAACUACUCAUACCCTT against Ints1 ... two
GGACAUAUUUCCAACAUGUTT against Mob3b ... one
GGACUUGCCACCCAGGAAATT against Apba3 ... two
GCAUCAGUAGAAACCCACATT against Tmigd3 ... two

[in] Into which bin does this sequence go? GCGAACGAGACACUUCAAUTT against Pla2g4a
[out] three

[in] Assign a bin to CCAGUUCAGAGAUUAUCUUTT against Olfr826
[out] one

[in] Into which bin does this sequence go? GGUAAUACCACCUCACCUUTT against Fam214b
[out] two

[in] Which of the defined bands does the recorded z-score of GGACUCCAAGAUCAUGGUCTT against Pnck sit within?
[out] three

[in] Lab note: sort CCAGACGCGUAACUGCUACTT against Cox6b2 into the matching z-score band.
[out] three

[in] Pick a category. Item: GCCAUACUUCCCUACAAAATT against Kctd19
[out] two

[in] Class? Entry: GCCUGUGUAUUACUUUUUUTT against Sned1
[out] one

----------
assay: Components of the Cytosolic LPS Sensing Pathway: Gene Identification via Genome-wide siRNA Screen; details: RAW264.7 macrophages, IL-1a HTRF, actives lie on both sides, screened at 100 nM (by protocol), cells primed 5 h with Pam3CSK4 first
About 3,700 (7%) of roughly 53,000 sequences were called active. This excerpt belongs to a sample that is enriched for actives.
The threshold is inclusive: z-score of exactly 0.5 counts as y; values below receive n.

GGAACAUCCAGUCUCUCACTT against Fbxo31 ... n

[in] Decide: is the reported value of z-score for GGGCUCACAUUGUACACACTT against Nckap5 equal to or greater than 0.5?
[out] y

[in] Is the recorded value of z-score equal to or greater than 0.5 for this sequence? GGCAUGUCUUAAUUUCAUUTT against Shisa2
[out] n

[in] Has GACUCUUGUCCCAAGUGUUTT against Bloc1s4 a recorded z-score greater than or equal to 0.5?
[out] n

[in] Determine whether this sequence has z-score no lower than 0.5: GGGUUGUCUUCAUCUACUUTT against Crhr1
[out] y

----------
assay: Components of the Cytosolic LPS Sensing Pathway: Gene Identification via Genome-wide siRNA Screen; conditions: RAW264.7 macrophages, IL-1a HTRF, actives lie on both sides, screened at 100 nM (by protocol), cells primed 5 h with Pam3CSK4 first
In all, about 53,000 sequences went through this assay and about 3,700 (7%) were called active. Shown is part of a subset that was picked to be rich in actives.
With a cut-off of 0.2, any z-score strictly below it is called fulfilled; any z-score meeting it or above is called not fulfilled.

GGCUCCUGGUUCUACAUCCTT against Itpr2 ... fulfilled
GACAGAGGAAUUUGUCUCCTT against Olfr1120 ... not fulfilled
GGAGCUCAUGGAAAUCUGUTT against Pfpl ... not fulfilled
GCUGCAUCGAAAAACUCAGTT against Mycbp2 ... fulfilled
CUCACAAGUCAAAGCCUACTT against Zfp182 ... fulfilled

[in] Determine if GGGAUAAUAAUGUUGAUUGTT against Mrc1 shows z-score strictly lower than 0.2.
[out] fulfilled

[in] Quick check: z-score of GUGCUUCUGAUCUCCUACATT against Olfr223 under 0.2?
[out] not fulfilled

----------
experiment: Components of the Cytosolic LPS Sensing Pathway: Gene Identification via Genome-wide siRNA Screen; conditions: RAW264.7 macrophages, IL-1a HTRF, actives lie on both sides, screened at 100 nM (by protocol), cells primed 5 h with Pam3CSK4 first;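 note: robust z of the log signal after scaling to non-targeting control siRNA wells of the plate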
Out of some 53,000 sequences screened, about 3,700 (7%) were called active. Many of the other results were omitted from the sample, so actives are more common in it than they were.
quantity: z-score
# answer = number (no unit)

Completed entries (count: 5):
GGUCUACUUCUUUUUUACGTT against Sema4d ... 0.467
GGGCUUAUUCUGUUAAUAGTT against Mttp ... -0.215
GCUUGUAGGUGGAUACAUGTT against Slc30a4 ... -0.161
GCCCAUGUUUUUUUUUCUGTT against Olfr648 ... 0.776
GCCACUGUUUGAUCUGAAATT against Fhod1 ... 0.943

Notebook: CCUGCUUACCAAAGAAUCCTT against Klf11 , z-score read as -0.884

Looking up GGAGGAAGACAUUGUGUGUTT against Tnfrsf11b , I see its z-score listed as -0.309

Note to self: z-score recorded for GGCUGAAGGAGCAAUCAAATT against L3mbtl3 was 1.85

sequence CCAGGAUCAAAGAACUUAUTT against Olfr1424 , z-score observed: -3.39

In plain terms, GGAAGAGCUGGACUUCUUCTT against Hoxb2 has a documented z-score of 1.71

Reported z-score for GCCACCCUUCUGGAGAUUCTT against Gm6787 was 1.49

----------
// values below are reported z-score
test: Components of the Cytosolic LPS Sensing Pathway: Gene Identification via Genome-wide siRNA Screen; settings: RAW264.7 macrophages, IL-1a HTRF, actives lie on both sides, screened at 100 nM (by protocol), cells primed 5 h with Pam3CSK4 first;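 note: robust z of the log signal after scaling to non-targeting control siRNA wells of the plate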
Out of some 53,000 sequences screened, about 3,700 (7%) were called active. This excerpt belongs to a sample that is enriched for actives.

GCACCUGGGCCUUUGAAUATT against Hes2 ... -0.754 (inactive)

z-score for GGAUCAAAAACACAUACUUTT against Adgre4 is 2.37 (active)

Input GGAUUUGUUUUCACCAAGATT against Dmd . Output z-score: 0.3 (inactive)

// z-score lookup, sequence = GGCUAAAUAUGUGAUUAGUTT against Maob , result: -0.311 (inactive)

----------
Reported z-score values for the following sequences.
assay: Components of the Cytosolic LPS Sensing Pathway: Gene Identification via Genome-wide siRNA Screen; conditions: RAW264.7 macrophages, IL-1a HTRF, actives lie on both sides, screened at 100 nM (by protocol), cells primed 5 h with Pam3CSK4 first;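 note: robust z of the log signal after scaling to non-targeting control siRNA wells of the plate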
Hit rate of the full screen: of about 53,000 sequences, about 3,700 (7%) were called active. This is one part of a sample in which actives are shown more often than they occur.

GGAGGAGAGGAGAAUAGCATT against Atp5k ... -0.586 (inactive)
CCACGGUUAUGAUGACGACTT against Dyrk1b ... 1.89 (inactive)
GGAUGAAGUGUGUUUUGGCTT against Sim1 ... 0.95 (inactive)
GCUCCACACUACGUGUCAUTT against Olfr476 ... 1.66 (inactive)
GGGCUGGCUACGAUAAGCUTT against Tes ... 1.53 (inactive)

Continue with the sequence presented below.
Entry GGUCACCUUAACCGAGAAGTT against Phkg1 ; z-score = 0.19 (inactive)

----------
assay: Components of the Cytosolic LPS Sensing Pathway: Gene Identification via Genome-wide siRNA Screen; details: RAW264.7 macrophages, IL-1a HTRF, actives lie on both sides, screened at 100 nM (by protocol), cells primed 5 h with Pam3CSK4 first;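 note: robust z of the log signal after scaling to non-targeting control siRNA wells of the plate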
In all, about 53,000 sequences went through this assay and about 3,700 (7%) were called active.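 Rule for the calls: active = gene knockdowns whose robust z-score for IL-1 alpha signal is at least 2 or at most -2, so actives lie on both sides; inactive = the rest.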 Shown is part of a subset that was picked to be rich in actives.
Just give me one of these, please: active, inactive

Look over these answered cases.
CCUUCAACAGAUCUAGAGUTT against Rexo1 ... active
CGGAGUUGGGAUUUACCAGTT against Pdia5 ... inactive
CGAGCAUAAAAGUUAUGUGTT against Chaf1b ... inactive
GCUGUUACUCUUAAACAAATT against Pdhx ... inactive
GCUCUGAUCAUUUGACUUGTT against Ovca2 ... inactive

[in] Hi, do you know how GGAAGAAAGUGAAGAAGAGTT against Cdr1os came out in this test?
[out] inactive

[in] Call for entry CGUGAGAUCAUUGAUGUGGTT against Ankrd2 :
[out] inactive

[in] // return assay outcome for GGAUUUGGAGCAGGUGGAUTT against Avpr1b
[out] inactive

[in] Write down the call the test reported for this sequence. Item: GGGUCAGAUUUUCAAUGUCTT against Bmpr1b
[out] inactive

[in] Record lookup: outcome of this test for GCUGUAAGCUACCGUCUGUTT against Panx2 ?
[out] inactive

[in] How was GCAUUUGGGCAACGAGAUGTT against Nr5a1 classified in this test?
[out] inactive

[in] For this sequence, state the assay outcome: GCUACUUAAGGGUUUGGAUTT against Pcdhb3
[out] active

[in] What was the test verdict on GUGGAAAUGUACUUCUCUGTT against Olfr257 ?
[out] inactive

[in] Look up the recorded call for GCCUUGUCUUCCUUCAGUGTT against Sprr2a1 in this test.
[out] inactive

[in] Returns: the outcome recorded for GCUAAUGAUUUCCGCUUUGTT against Tyw1 in this assay.
[out] inactive

Origin of the recorded values: PubChem BioAssay AID1508600
